Reference for the values: patent US20240050432A1

Experiment: Eganelisib exposures (Cmax, AUC0-24 hrs) with combination therapies, 3 clinical studies
Format: in vivo, human
Conditions: human, in vivo, 40 mg, 40 mg QD, C2D1, model-predicted; read-out: AUC0-24 hrs, GeoMean

Chemical Smiles	Unit Text	AUC(0-t)
C[C@H](NC(=O)c1c(N)nn2cccnc12)c1cc2cccc(C#Cc3cnn(C)c3)c2c(=O)n1-c1ccccc1	ng·h/mL	42100

---

Experiment: Eganelisib exposures (Cmax, AUC0-24 hrs) with combination therapies, 3 clinical studies
Format: in vivo, human
Details: human, in vivo, oral, 30 mg QD, C2D1, model-predicted; read-out: Cmax, Mean

Chemical Smiles	Unit Text	Cmax
C[C@H](NC(=O)c1c(N)nn2cccnc12)c1cc2cccc(C#Cc3cnn(C)c3)c2c(=O)n1-c1ccccc1	ng/mL	1860

---

Assay: Eganelisib exposures (Cmax, AUC0-24 hrs) with combination therapies, 3 clinical studies
Assay type: in vivo, human
Details: human, in vivo, 30 mg QD, C2D1, model-predicted; read-out: Cmax, Median

Compound	Unit Text	Cmax
C[C@H](NC(=O)c1c(N)nn2cccnc12)c1cc2cccc(C#Cc3cnn(C)c3)c2c(=O)n1-c1ccccc1 [Compound 1, eganelisib]	ng/mL	1530

---

Test: Eganelisib exposures (Cmax, AUC0-24 hrs) with combination therapies, 3 clinical studies
Assay type: in vivo, human
Settings: human, in vivo, oral, 30 mg QD, C1D1, model-predicted; read-out: AUC0-24 hrs, Median
Observed Property: AUC(0-t) (ng·h/mL)

Chemical Smiles	Observed Property	Recorded Result
C[C@H](NC(=O)c1c(N)nn2cccnc12)c1cc2cccc(C#Cc3cnn(C)c3)c2c(=O)n1-c1ccccc1	AUC(0-t)	15900

---

Assay: Eganelisib exposures (Cmax, AUC0-24 hrs) with combination therapies, 3 clinical studies
Type: in vivo, human
Conditions: human, in vivo, 40 mg, 40 mg QD, C2D1, model-predicted; read-out: Cmax, GeoMean
Observed Property: Cmax

Chemical Smiles	Observed Property	Recorded Result
C[C@H](NC(=O)c1c(N)nn2cccnc12)c1cc2cccc(C#Cc3cnn(C)c3)c2c(=O)n1-c1ccccc1	Cmax	2470 ng/mL

---

Assay: Eganelisib exposures (Cmax, AUC0-24 hrs) with combination therapies, 3 clinical studies
Assay type: in vivo, human
Conditions: human, in vivo, 40 mg, 40 mg QD, C1D1, model-predicted; read-out: Cmax, Mean

Compound	Cmax / ng/mL
C[C@H](NC(=O)c1c(N)nn2cccnc12)c1cc2cccc(C#Cc3cnn(C)c3)c2c(=O)n1-c1ccccc1 [Compound 1, eganelisib]	1650

---

Assay: Eganelisib exposures (Cmax, AUC0-24 hrs) with combination therapies, 3 clinical studies
Format: in vivo, human
Settings: human, in vivo, 30 mg QD, C1D1, model-predicted; read-out: Cmax, Median

Chemical Smiles	Unit Text	Cmax
C[C@H](NC(=O)c1c(N)nn2cccnc12)c1cc2cccc(C#Cc3cnn(C)c3)c2c(=O)n1-c1ccccc1	ng/mL	978

---

Experiment: Eganelisib exposures (Cmax, AUC0-24 hrs) with combination therapies, 3 clinical studies
Format: in vivo, human
Conditions: human, in vivo, 40 mg, 40 mg QD, C1D1, model-predicted; read-out: Cmax, Median
Observed Property: Cmax

Chemical Smiles	Recorded Result
C[C@H](NC(=O)c1c(N)nn2cccnc12)c1cc2cccc(C#Cc3cnn(C)c3)c2c(=O)n1-c1ccccc1	1560 ng/mL

---

Test: Eganelisib exposures (Cmax, AUC0-24 hrs) with combination therapies, 3 clinical studies
Type: in vivo, human
Conditions: human, in vivo, 40 mg, 40 mg QD, C2D1, model-predicted; read-out: AUC0-24 hrs, Median
Observed Property: AUC(0-t) (ng·h/mL)

Chemical Smiles	Observed Property	Unit Text	Recorded Result
C[C@H](NC(=O)c1c(N)nn2cccnc12)c1cc2cccc(C#Cc3cnn(C)c3)c2c(=O)n1-c1ccccc1	AUC(0-t)	ng·h/mL	41400
